- TEST_PROTOCOL: Pharmacokinetics of DAPA in healthy rats (alone or co-administered with ARE), plasma by UPLC-MS/MS
- Assay type: in vivo, Sprague Dawley (SD) rats
- CONDITION_CONTEXT: male, Sprague-Dawley, rat, plasma, po, 1.05 mg/kg, CDA-L group: healthy rats, ARE 300 mg/kg once a day for 7 days + DAPA single dose 1.05 mg/kg on day 7; n=6, mean ± SD
QUANTITY: half-life (h)
Expressed in h, but write only the number.

For this compound ( CCOc1ccc(Cc2cc([C@@H]3O[C@H](CO)[C@@H](O)[C@H](O)[C@H]3O)ccc2Cl)cc1 [DAPA, Dapagliflozin] ), measured half-life is 3.8
